AC50 values by entry
Target: human PAH with the R408W mutation (Homo sapiens, UniProt P00439, R408W)
Construct: expressed in transfected cells
Sequence (P00439 whole entry R408W): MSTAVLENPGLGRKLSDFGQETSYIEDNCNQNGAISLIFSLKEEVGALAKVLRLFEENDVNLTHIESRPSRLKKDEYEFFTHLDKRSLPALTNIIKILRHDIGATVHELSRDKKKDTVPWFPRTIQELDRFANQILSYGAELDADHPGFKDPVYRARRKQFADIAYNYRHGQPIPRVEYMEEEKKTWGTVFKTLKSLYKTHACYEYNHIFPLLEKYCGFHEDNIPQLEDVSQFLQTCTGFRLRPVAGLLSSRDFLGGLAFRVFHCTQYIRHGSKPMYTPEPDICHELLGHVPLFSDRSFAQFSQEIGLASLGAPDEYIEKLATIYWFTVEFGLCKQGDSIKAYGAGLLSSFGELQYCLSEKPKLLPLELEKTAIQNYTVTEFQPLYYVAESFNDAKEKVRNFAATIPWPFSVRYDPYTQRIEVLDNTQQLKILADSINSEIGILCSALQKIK
Experiment: Cell Based Phenylalanine Flux Assay
Conditions: A375 cells expressing human R408W PAH; 24 hrs compound incubation; 13C-Tyrosine by LC-MS; average where tested multiple times; read-out: AC50
Counter-ions that a name gives are not always drawn.

| molecule | AC50 |
| --- | --- |
| CC(C)(F)c1ncc(C(=O)N2CCc3[nH]cnc3C2c2ccc3ccccc3n2)o1 (stereo in doubt) [Example 17] | < 500 nM |
| O=C(c1nnc(-c2cnn(C(F)F)c2)o1)N1CCc2[nH]cnc2C1c1ccc2ccccc2n1 (stereo in doubt) [Example 64] | > 5000 nM |
| Cn1cc(-c2ncc(C(=O)N3CCc4[nH]cnc4[C@H]3c3cc4ccccc4cn3)o2)cn1 [Example 311] | < 500 nM |
| Cc1nnc(C(=O)N2CCc3[nH]cnc3[C@@H]2c2cc3ccccc3cn2)o1 [Example 319] | > 5000 nM |
| O=C(c1cnn2cc(-c3ccncn3)ccc12)N1CCc2[nH]cnc2[C@H]1c1cc2ccccc2cn1 [Example 476] | < 500 nM |
| Cc1nc(-c2ccccn2)oc1C(=O)N1CCc2[nH]cnc2C1c1ccc2ccccc2n1 (stereo in doubt) [Example 31] | 500 to 1000 nM |
| O=C(c1nnc(C2CC(F)(F)C2)o1)N1CCc2[nH]cnc2[C@H]1c1ncc2ccccc2n1 [Example 151] | 500 to 1000 nM |
| O=C(c1ocnc1C(F)(F)F)N1CCc2[nH]cnc2[C@H]1c1cn2ccccc2n1 [Example 234] | < 500 nM |
| Cn1ccc(-c2nnc(C(=O)N3CCc4[nH]cnc4[C@H]3c3ncc4ccccc4n3)o2)n1 [Example 165] | 500 to 1000 nM |
| O=C(c1oc(N2CCC(F)CC2)nc1C(F)F)N1CCc2[nH]cnc2[C@H]1c1ncc2ccccc2n1 [Example 280] | < 500 nM |
| O=C(c1cnn2c(Br)cccc12)N1CCc2[nH]cnc2[C@H]1c1cc2ccccc2cn1 [Example 355] | < 500 nM |
| COCc1nc(C(F)F)c(C(=O)N2CCc3[nH]cnc3C2c2ccc3ccccc3n2)o1 (stereo in doubt) [Example 78] | < 500 nM |
| C[C@H]1CN(C(=O)c2nnc(C(C)(C)C)o2)[C@@H](c2cc3ccccc3cn2)c2nc[nH]c21 [Example 427] | 1000 to 5000 nM |
| Cn1cc(C(=O)N2CCc3[nH]cnc3C2c2ccc3ccccc3n2)c(Cl)n1 (stereo in doubt) [Example 88] | < 500 nM |
| Cc1cnn(C)c1-c1nnc(C(=O)N2CCc3[nH]cnc3[C@H]2c2cc3ccccc3cn2)o1 [Example 455] | < 500 nM |
| Cn1nc(Cl)cc1C(=O)N1CCc2[nH]cnc2C1c1ccc2ccccc2n1 (stereo in doubt) [Example 263] | < 500 nM |
| CC(C)(O)c1nc(C(F)F)c(C(=O)N2CCc3[nH]cnc3C2c2ccc3ccccc3n2)o1 (stereo in doubt) [Example 92] | 1000 to 5000 nM |
| O=C(CCC1CC1)N1CCc2[nH]cnc2[C@H]1c1cn2ccccc2n1 [Example 242] | < 500 nM |
| C[C@H]1CN(C(=O)c2ocnc2C2CC2)[C@H](c2cc3ccccc3cn2)c2nc[nH]c21 [Example 506] | < 500 nM |
| O=C(Cc1cncs1)N1CCc2[nH]cnc2[C@H]1c1cc2ccccc2cn1 [Example 373] | < 500 nM |
| O=C(CCc1nccs1)N1CCc2[nH]cnc2C1c1ccc2ccccc2n1 (stereo in doubt) [Example 272] | > 5000 nM |
| O=C(c1cnc(-c2ccccn2)o1)N1CCc2[nH]cnc2[C@@H]1c1ncc2ccccc2n1 [Example 157] | > 5000 nM |
| O=C(c1cnco1)N1CCc2[nH]cnc2[C@@H]1c1ncc2ccccc2n1 [Example 150] | > 5000 nM |
| CC(C)(F)c1nnc(C(=O)N2CCc3[nH]cnc3C2c2ccc3ccccc3n2)o1 (stereo in doubt) [Example 105] | 500 to 1000 nM |
| O=C(CCc1nccs1)N1CCc2[nH]cnc2[C@H]1c1ccc2ccccc2c1 [Example 219] | 500 to 1000 nM |
| O=C(c1nnc(-c2cc[nH]n2)o1)N1CCc2[nH]cnc2[C@H]1c1ncc2ccccc2n1 [Example 175] | 500 to 1000 nM |
| Cc1nc(C(C)(C)O)oc1C(=O)N1CCc2[nH]cnc2[C@H]1c1ncc2ccccc2n1 [Example 141, hydrochloride] | < 500 nM |
| COCc1ncc(C(=O)N2CCc3[nH]cnc3[C@H]2c2cc3ccccc3cn2)o1 [Example 394] | 500 to 1000 nM |
| O=C(c1n[nH]c2ccccc12)N1CCc2[nH]cnc2[C@H]1c1cc2ccccc2cn1 [Example 359] | < 500 nM |
| O=C(c1cn(-c2ccccn2)nc1Cl)N1CCc2[nH]cnc2C1c1ccc2ccccc2n1 (stereo in doubt) [Example 109] | 1000 to 5000 nM |
| COCc1ncc(C(=O)N2CCc3[nH]cnc3[C@H]2c2cc3ccccc3cn2)s1 [Example 393] | 500 to 1000 nM |
